Reference for the values: ChEMBL document CHEMBL2346654

Test: Oral bioavailability in mouse
Assay type: ADME, organism-based
Conditions: in vivo

{"columns": ["entry_smiles", "bioavailability"],
 "data": [
  ["Cc1cccc(NC(=O)c2nn(C)c(-c3ccc(F)cc3)c2C)n1", "31%"]
]}

----------
half-life values, listed per item
Assay: Half life in human liver microsomes
Conditions: liver microsomes

{"columns": ["entry_smiles", "qualifier", "half-life (h)"],
 "data": [
  ["Cc1cccc(NC(=O)c2nn(C)c(C3CCCCC3)c2C)n1", "=", 1.38],
  ["Cc1cccc(NC(=O)c2nn(C)c(-c3ccc(F)cc3)c2C)n1", "=", 1.37],
  ["Cc1c(C(=O)Nc2ccnc(F)c2)nn(C)c1-c1ccc(F)cc1", ">", 5],
  ["COc1ccc(-c2c(C)c(C(=O)Nc3cccc(C)n3)nn2C)cc1", ">", 5],
  ["Cc1nc(C(=O)Nc2ccnc(Cl)n2)c(C)n1-c1ccc(F)cc1", "=", 4.72],
  ["Cc1cccc(NC(=O)c2nn(C)c(-c3ccc(C(F)(F)F)cc3)c2C)n1", ">", 5],
  ["Cc1c(C(=O)Nc2ccnc(Cl)n2)nn(C)c1-c1ccc(F)cc1", ">", 5],
  ["Cc1nc(C(=O)Nc2cccc(C(F)(F)F)n2)c(C)n1-c1ccc(F)cc1", "=", 3.27],
  ["Cc1c(C(=O)Nc2ccc(Cl)cn2)nn(C)c1-c1ccc(F)cc1", ">", 5],
  ["Cc1cccc(NC(=O)c2nn(C)c(-c3ccc(Cl)c(Cl)c3)c2C)n1", "=", 1.78],
  ["Cc1cccc(NC(=O)c2nn(C)c(-c3cc(F)cc(F)c3)c2C)n1", "=", 0.533],
  ["Cc1cccc(NC(=O)c2nn(C)c(-c3ccccc3)c2C)n1", "=", 1.1],
  ["Cc1nc(C(=O)Nc2cccc(F)n2)c(C)n1-c1ccc(F)cc1", "=", 1.6],
  ["Cc1cccc(NC(=O)c2nn(C)c(-c3ccc(F)cc3F)c2C)n1", "=", 1.12],
  ["Cc1c(C(=O)Nc2cccc(Cl)n2)nn(C)c1-c1ccc(F)cc1", "=", 1.92],
  ["Cc1ccc(NC(=O)c2nn(C)c(-c3ccc(F)cc3)c2C)nc1", "=", 0.433],
  ["Cc1c(C(=O)Nc2cccc(C(F)(F)F)n2)nn(C)c1-c1ccc(F)cc1", "=", 4.48],
  ["Cc1cccc(NC(=O)c2nc(C)n(-c3ccc(Cl)c(Cl)c3)c2C)n1", "=", 2.03],
  ["Cc1nc(NC(=O)c2nc(C)n(-c3ccc(F)cc3)c2C)ccc1F", "=", 1]
]}

----------
Assay: Half life in rat liver microsomes
Details: liver microsomes
The following compounds are listed with their measured half-life values.
measured_endpoint: half-life (h)

{"columns": ["entry_smiles", "qualifier", "val"],
 "data": [
  ["Cc1ccc(NC(=O)c2nn(C)c(-c3ccc(F)cc3)c2C)nc1", "=", 1.12],
  ["Cc1cccc(NC(=O)c2nn(C)c(-c3ccc(Cl)c(Cl)c3)c2C)n1", "=", 2.47],
  ["Cc1cccc(NC(=O)c2nn(C)c(-c3ccc(C(F)(F)F)cc3)c2C)n1", ">", 5],
  ["Cc1c(C(=O)Nc2ccnc(Cl)n2)nn(C)c1-c1ccc(F)cc1", ">", 5],
  ["Cc1cccc(NC(=O)c2nn(C)c(-c3ccc(F)cc3F)c2C)n1", "=", 1.27],
  ["Cc1cccc(NC(=O)c2nn(C)c(-c3cc(F)cc(F)c3)c2C)n1", "=", 1.07],
  ["Cc1nc(NC(=O)c2nc(C)n(-c3ccc(F)cc3)c2C)ccc1F", "=", 0.733],
  ["Cc1cccc(NC(=O)c2nn(C)c(-c3ccccc3)c2C)n1", "=", 0.4],
  ["Cc1nc(C(=O)Nc2cccc(C(F)(F)F)n2)c(C)n1-c1ccc(F)cc1", "=", 1.2],
  ["Cc1cccc(NC(=O)c2nn(C)c(-c3ccc(F)cc3)c2C)n1", "=", 0.933],
  ["Cc1nc(C(=O)Nc2ccnc(Cl)n2)c(C)n1-c1ccc(F)cc1", "=", 2.75]
]}
